Tested on: Bacillus subtilis
Experiment: Antibacterial activity against Bacillus subtilis IFO 3007 after 24 hrs by two fold dilution method
Format: functional
Details: IFO 3007, 24 h
Test readout: MIC (µg/mL)
Give bare numbers, in µg/mL.

Answered examples (2):
Mol: CC1(C)S[C@@H]2[C@H](NC(=O)[C@H](N)c3ccccc3)C(=O)N2[C@H]1C(=O)O
Target system: Bacillus subtilis
Reading unit: µg/mL
MIC: 0.5
//
Mol: COc1ccccc1N1CCN(Cn2nc(C34CC5CC(CC(C5)C3)C4)n(-c3ccc(Cl)cc3)c2=S)CC1
Target system: Bacillus subtilis
Reading unit: µg/mL
MIC: 16

Let us examine a further case.
Query: Which MIC value is on record for Cn1c(C23CC4CC(CC(C4)C2)C3)nn(CN2CCN(c3ccccc3)CC2)c1=S ?
Reply: 16
